molecular target: T1, biotinylated hBLyS-ECD (human, UniProt Q9Y275 134-285, biotinylated with Biotin-X-X-NHS (molar ratio 7:1); sites not stated); assay: ELISA on captured biotinylated hBLyS-ECD; antibody 0.0213 nM
T1 construct: also called biotinylated immunogen; biotinylated hBLvS-ECD
T1 sequence (Q9Y275 134-285): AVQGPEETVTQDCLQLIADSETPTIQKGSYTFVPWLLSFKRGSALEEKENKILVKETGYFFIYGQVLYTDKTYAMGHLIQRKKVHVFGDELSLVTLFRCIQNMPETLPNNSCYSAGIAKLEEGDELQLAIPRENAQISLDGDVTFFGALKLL
Consider the following binders; for each one, report its OD450 nm.
State the answer as a number, implicitly in OD450 nm.

Provide measured OD450 nm value, entry: c8E7D9C7F5 (antibody, V domains shown, also called chimeric antibody c8E7D9C7F5) VH: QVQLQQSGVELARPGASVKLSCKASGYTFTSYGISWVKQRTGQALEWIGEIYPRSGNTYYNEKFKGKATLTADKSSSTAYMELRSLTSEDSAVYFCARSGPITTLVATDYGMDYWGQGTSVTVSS VL: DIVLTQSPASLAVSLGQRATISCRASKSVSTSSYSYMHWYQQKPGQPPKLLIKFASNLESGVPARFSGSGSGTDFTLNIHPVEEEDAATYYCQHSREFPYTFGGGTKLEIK
0.508

Hello, please tell me recorded OD450 nm for this one: c97A3C2H4 (antibody, V domains shown, also called chimeric antibody c97A3C2H4) VH: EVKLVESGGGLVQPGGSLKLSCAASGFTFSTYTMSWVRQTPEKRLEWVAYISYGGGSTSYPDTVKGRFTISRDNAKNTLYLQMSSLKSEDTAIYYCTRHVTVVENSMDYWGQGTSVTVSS VL: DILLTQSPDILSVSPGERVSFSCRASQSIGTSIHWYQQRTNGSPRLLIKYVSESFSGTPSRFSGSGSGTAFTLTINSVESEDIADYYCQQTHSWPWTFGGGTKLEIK
0.374

For the binder h97A3C2H4-9 (antibody, V domains shown, Humanized antibody; VH3-7/JH6 CDR-grafted with A93T, G44R; also called humanized BLyS antibody h97A3C2H4 variant 9 (VH.1b / Vk.1d)) VH: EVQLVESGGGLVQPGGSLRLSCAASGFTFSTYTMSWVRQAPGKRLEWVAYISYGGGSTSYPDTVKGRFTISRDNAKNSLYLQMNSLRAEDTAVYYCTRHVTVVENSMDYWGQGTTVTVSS VL: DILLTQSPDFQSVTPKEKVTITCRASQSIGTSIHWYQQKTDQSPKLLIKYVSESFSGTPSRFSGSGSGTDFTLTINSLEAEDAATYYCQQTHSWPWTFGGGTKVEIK , give its measured OD450 nm value.
0.372

Indicate its recorded OD450 nm; the binder in question is h8E7D9C7F5-1 (antibody, V domains shown, Humanized antibody; also called humanized BLyS antibody h8E7D9C7F5 variant 1 (VH.1 / Vk.1)) VH: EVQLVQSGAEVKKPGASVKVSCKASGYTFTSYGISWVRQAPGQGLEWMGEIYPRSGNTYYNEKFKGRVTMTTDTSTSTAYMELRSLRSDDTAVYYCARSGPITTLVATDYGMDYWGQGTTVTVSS VL: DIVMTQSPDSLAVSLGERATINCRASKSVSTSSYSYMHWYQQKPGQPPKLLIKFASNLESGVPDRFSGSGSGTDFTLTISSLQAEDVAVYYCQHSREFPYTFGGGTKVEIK
0.499
